Would you mind telling me the reported normalized RNA/DNA level with ligand (log10) of each entry?
B1: library; a variant is named by its letters at N, in order (parent)
chain: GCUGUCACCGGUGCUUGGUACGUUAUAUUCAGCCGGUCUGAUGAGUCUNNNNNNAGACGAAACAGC

Variants of: B1
Assay: normalized RNA/DNA level with ligand (relative to sTRSVctl = 100) (log10 (% of sTRSVctl)); HEK293T overexpressing SLC46A1; ligand concentration (+) RNA-Seq: 6 mM; higher = less ribozyme self-cleavage, higher mRNA level
Conditions: with (6R,S)-folinic acid; ligand present: yes
Please give only the number in your answer, with no unit.

Give its normalized RNA/DNA level with ligand (log10) value. Item: `UGCUAG`
1.97

Give its normalized RNA/DNA level with ligand (log10) value. Item: `GAUUGU`
2.02

Give its normalized RNA/DNA level with ligand (log10) value. Item: `AUUCAU`
2.02

Give its normalized RNA/DNA level with ligand (log10) value. Item: `UGACUC`
2.04

Give its normalized RNA/DNA level with ligand (log10) value. Item: `UUUGUG`
1.95

Give its normalized RNA/DNA level with ligand (log10) value. Item: `CUAUUU`
1.98

Give its normalized RNA/DNA level with ligand (log10) value. Item: `CAAGGG`
1.99

Give its normalized RNA/DNA level with ligand (log10) value. Item: `CUGAUA`
2.02

Give its normalized RNA/DNA level with ligand (log10) value. Item: `CACCUU`
2.01

Give its normalized RNA/DNA level with ligand (log10) value. Item: `AACGUU`
1.98

Give its normalized RNA/DNA level with ligand (log10) value. Item: `UAGAAG`
1.96

Give its normalized RNA/DNA level with ligand (log10) value. Item: `CACGUU`
1.99

Give its normalized RNA/DNA level with ligand (log10) value. Item: `ACUCCG`
2.03

Give its normalized RNA/DNA level with ligand (log10) value. Item: `AGCAGG`
2.01

Give its normalized RNA/DNA level with ligand (log10) value. Item: `ACUUCA`
2

Give its normalized RNA/DNA level with ligand (log10) value. Item: `UGGCGU`
2.03

Give its normalized RNA/DNA level with ligand (log10) value. Item: `UGACGA`
2.04

Give its normalized RNA/DNA level with ligand (log10) value. Item: `UAAUAU`
1.99

Give its normalized RNA/DNA level with ligand (log10) value. Item: `UGUGUC`
2

Give its normalized RNA/DNA level with ligand (log10) value. Item: `UUUCAU`
2.02

Give its normalized RNA/DNA level with ligand (log10) value. Item: `GAAUCG`
2

Give its normalized RNA/DNA level with ligand (log10) value. Item: `CUCUAC`
2.04

Give its normalized RNA/DNA level with ligand (log10) value. Item: `GUCACU`
2.03

Give its normalized RNA/DNA level with ligand (log10) value. Item: `AUGUUA`
1.98

Give its normalized RNA/DNA level with ligand (log10) value. Item: `CAUGCA`
2.01

Give its normalized RNA/DNA level with ligand (log10) value. Item: `UUGACA`
1.98

Give its normalized RNA/DNA level with ligand (log10) value. Item: `CUCCUA`
2.01

Give its normalized RNA/DNA level with ligand (log10) value. Item: `ACCCUA`
2.03

Give its normalized RNA/DNA level with ligand (log10) value. Item: `CCGACC`
2.04

Give its normalized RNA/DNA level with ligand (log10) value. Item: `CCAUAA`
1.97

Give its normalized RNA/DNA level with ligand (log10) value. Item: `CCCAAA`
2.03

Give its normalized RNA/DNA level with ligand (log10) value. Item: `GCCCUC`
2.03

Give its normalized RNA/DNA level with ligand (log10) value. Item: `AAGUGA`
2.03

Give its normalized RNA/DNA level with ligand (log10) value. Item: `CCGAAC`
2.02

Give its normalized RNA/DNA level with ligand (log10) value. Item: `GAUUGA`
2.02

Give its normalized RNA/DNA level with ligand (log10) value. Item: `UUGUUU`
2.08

Give its normalized RNA/DNA level with ligand (log10) value. Item: `CUCAAC`
2.04

Give its normalized RNA/DNA level with ligand (log10) value. Item: `UAGUGC`
2

Give its normalized RNA/DNA level with ligand (log10) value. Item: `AACUUC`
2.04

Give its normalized RNA/DNA level with ligand (log10) value. Item: `GGGUUA`
2.03

Give its normalized RNA/DNA level with ligand (log10) value. Item: `CUCUGU`
2.04

Give its normalized RNA/DNA level with ligand (log10) value. Item: `UUUCAC`
2

Give its normalized RNA/DNA level with ligand (log10) value. Item: `GUGCGC`
2.01

Give its normalized RNA/DNA level with ligand (log10) value. Item: `GGAUCG`
2.08

Give its normalized RNA/DNA level with ligand (log10) value. Item: `GAAUCA`
2.01

Give its normalized RNA/DNA level with ligand (log10) value. Item: `CAUAUA`
1.97

Give its normalized RNA/DNA level with ligand (log10) value. Item: `AAAGUG`
1.95

Give its normalized RNA/DNA level with ligand (log10) value. Item: `ACCAGA`
2.05

Give its normalized RNA/DNA level with ligand (log10) value. Item: `AAUAUC`
2.02

Give its normalized RNA/DNA level with ligand (log10) value. Item: `ACCAGC`
2.06

Give its normalized RNA/DNA level with ligand (log10) value. Item: `AACUAU`
2

Give its normalized RNA/DNA level with ligand (log10) value. Item: `AUUUCU`
2.03

Give its normalized RNA/DNA level with ligand (log10) value. Item: `AUCUUA`
2.03

Give its normalized RNA/DNA level with ligand (log10) value. Item: `AGCAGA`
2.02

Give its normalized RNA/DNA level with ligand (log10) value. Item: `AUAUUG`
1.97

Give its normalized RNA/DNA level with ligand (log10) value. Item: `UCUAUA`
2.04

Give its normalized RNA/DNA level with ligand (log10) value. Item: `AAUAUG`
1.99

Give its normalized RNA/DNA level with ligand (log10) value. Item: `GACUUA`
1.99

Give its normalized RNA/DNA level with ligand (log10) value. Item: `GGUUAC`
2

Give its normalized RNA/DNA level with ligand (log10) value. Item: `GGUAGG`
1.99

Give its normalized RNA/DNA level with ligand (log10) value. Item: `GUGUUA`
2.01

Give its normalized RNA/DNA level with ligand (log10) value. Item: `UACUCU`
2.05

Give its normalized RNA/DNA level with ligand (log10) value. Item: `GUGGUA`
1.97

Give its normalized RNA/DNA level with ligand (log10) value. Item: `CUGACG`
2.05

Give its normalized RNA/DNA level with ligand (log10) value. Item: `CGGUAU`
2

Give its normalized RNA/DNA level with ligand (log10) value. Item: `GAGGUA`
1.92

Give its normalized RNA/DNA level with ligand (log10) value. Item: `GGCCCU`
2.06

Give its normalized RNA/DNA level with ligand (log10) value. Item: `AACCUA`
2.02

Give its normalized RNA/DNA level with ligand (log10) value. Item: `UGAGUA`
2

Give its normalized RNA/DNA level with ligand (log10) value. Item: `GUAAGU`
2.02

Give its normalized RNA/DNA level with ligand (log10) value. Item: `GAACAG`
2.01

Give its normalized RNA/DNA level with ligand (log10) value. Item: `CACCUG`
2.02

Give its normalized RNA/DNA level with ligand (log10) value. Item: `GAUACA`
1.98

Give its normalized RNA/DNA level with ligand (log10) value. Item: `UGUGCA`
1.99

Give its normalized RNA/DNA level with ligand (log10) value. Item: `UGUAGG`
1.92

Give its normalized RNA/DNA level with ligand (log10) value. Item: `AAGACA`
2.01

Give its normalized RNA/DNA level with ligand (log10) value. Item: `ACCCAG`
2

Give its normalized RNA/DNA level with ligand (log10) value. Item: `GGAACC`
2.04

Give its normalized RNA/DNA level with ligand (log10) value. Item: `GAGUCU`
2.02

Give its normalized RNA/DNA level with ligand (log10) value. Item: `GCUCAU`
2.01

Give its normalized RNA/DNA level with ligand (log10) value. Item: `GCCAAG`
2.04

Give its normalized RNA/DNA level with ligand (log10) value. Item: `AGAAUA`
2.02

Give its normalized RNA/DNA level with ligand (log10) value. Item: `ACGGCU`
2.04

Give its normalized RNA/DNA level with ligand (log10) value. Item: `GCAGCA`
2.06

Give its normalized RNA/DNA level with ligand (log10) value. Item: `CGGAUG`
2.02

Give its normalized RNA/DNA level with ligand (log10) value. Item: `CUGAAC`
1.99

Give its normalized RNA/DNA level with ligand (log10) value. Item: `GGUUGC`
1.98

Give its normalized RNA/DNA level with ligand (log10) value. Item: `CUGAGU`
2.06

Give its normalized RNA/DNA level with ligand (log10) value. Item: `AGGUUG`
2.04

Give its normalized RNA/DNA level with ligand (log10) value. Item: `UGAAUA`
2.03

Give its normalized RNA/DNA level with ligand (log10) value. Item: `UUCCGA`
2

Data provenance is the supplement of paper PMC6757056.
